Target: DLK (Homo sapiens)
Construct: 10 nM DLK, catalytic domain, Carna Biosiences; purchased Carna Biosciences ('Carna Biosiences' [sic])
Sequence (Q12852 125-366 limits assumed): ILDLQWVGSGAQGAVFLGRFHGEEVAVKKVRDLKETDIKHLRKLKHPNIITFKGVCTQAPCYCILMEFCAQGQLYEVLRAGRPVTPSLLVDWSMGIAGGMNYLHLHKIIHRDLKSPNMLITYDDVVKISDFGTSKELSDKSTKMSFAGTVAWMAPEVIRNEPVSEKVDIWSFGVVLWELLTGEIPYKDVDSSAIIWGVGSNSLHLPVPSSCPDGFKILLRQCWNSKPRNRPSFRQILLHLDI
Test: DLK biochemical assay (TR-FRET, MKK7 phosphorylation)
pIC50: −log10 of the molar value.
# pIC50 per entry

# Compound, pIC50
records = [
    ("CCC(c1ccc(OC(F)(F)F)nc1)n1cc(-c2cc(-c3ccc(=O)n(CC(F)(F)F)c3)c3nc(N)nn3c2)cn1 (centres unmarked) [II-163]", 8.31),
    ("Nc1nc2c(-c3ccc(=O)n(C(F)F)c3)cc(-c3cnn(C(c4ccc(C(F)(F)F)nc4)C4CCOCC4)c3)cn2n1 (centres unmarked) [II-153]", 8.85),
    ("CC(C)C(c1ccc(C(F)(F)F)nc1)n1cc(-c2cc(-c3ccc(C4CC(F)(F)C4)nc3)n3nc(N)nc3c2)cn1 (single isomer, unassigned) [II-75]", 7.57),
    ("Nc1nc2c(-c3ccc(=O)n(CC(F)(F)F)c3)cc(-c3cnn(C(c4ccc(C(F)(F)F)nc4)C4CCOCC4)c3)cn2n1 (single isomer, unassigned) [II-161]", 8.07),
    ("CCC(c1ccc(C(F)(F)F)nc1)n1cc(-c2cc(-c3ccnc(OC(F)F)c3)c3nc(N)nn3c2)cn1 (single isomer, unassigned) [II-26]", 6.68),
    ("CC(C)(O)c1cccc(-c2cc(-c3cnn(C(c4ccc(C(F)(F)F)nc4)C4CCOCC4)c3)cn3nc(N)nc23)c1 (racemic) [II-10]", 9.15),
    ("CS(=O)(=O)c1cccc(-c2cc(-c3cnn(C(c4ccc(C(F)(F)F)nc4)C4CCOCC4)c3)cn3nc(N)nc23)c1 (racemic) [II-13]", 9.15),
    ("CCC(c1ccc(OC(F)(F)F)nc1)n1cc(-c2cc(-c3cnn(CC(F)(F)F)c3)n3nc(N)nc3c2)cn1 (racemic) [II-114]", 7.34),
    ("Nc1nc2cc(-c3cnn(C(c4ccc(C(F)(F)F)nc4)C4CCOCC4)c3)cc(-c3ccc(=O)n(CC(F)F)c3)n2n1 (single isomer, unassigned) [II-187]", 9.70),
    ("CC(C)C(c1ccc(C(F)(F)F)nc1)n1cc(-c2cc(-c3cnn(CC(F)(F)F)c3)n3nc(N)nc3c2)cn1 (single isomer, unassigned) [II-141]", 7.64),
    ("Nc1nc2c(-c3cc(CO)ccc3Cl)cc(-c3cnn(C(c4ccc(C(F)(F)F)nc4)C4CCOCC4)c3)cn2n1 (racemic) [II-4]", 8.15),
    ("Nc1nc2cc(-c3cnn(Cc4ccnc(OC(F)(F)F)c4)c3)cc(-c3cnn(CC(F)(F)F)c3)n2n1 [II-135]", 7.72),
    ("CCC(c1ccc(C(F)(F)F)cc1)n1cc(-c2cc(-c3cnn(CC(F)(F)F)c3)n3nc(N)nc3c2)cn1 (single isomer, unassigned) [II-130]", 6.92),
    ("CCC(c1ccc(C(F)(F)F)nc1)n1cc(-c2cc(-c3ccc(=O)n(CC(F)(F)F)c3)n3nc(N)nc3c2)cn1 (centres unmarked) [II-188]", 8.15),
    ("CC(C)C(c1ccc(C(F)(F)F)nc1)n1cc(-c2cc(-c3ccnc(C(F)(F)F)c3)n3nc(N)nc3c2)cn1 (single isomer, unassigned) [II-30]", 8.06),
    ("Nc1nc2c(-c3cnn(CC(F)(F)F)c3)cc(-c3cnn(C4CCN(C5COC5)CC4)c3)cn2n1 [II-120]", 6.62),
    ("N#CCC(n1cc(-c2cc(-c3cnn(Cc4ccccc4)c3)cc3nc(N)nn23)cn1)C(F)(F)F (centres unmarked) [II-123]", 7.28),
    ("CCC(c1ccc(C(F)(F)F)nc1)n1cc(-c2cc(-c3ccn(C)c(=O)c3)c3nc(N)nn3c2)cn1 (centres unmarked) [II-169]", 7.70),
    ("CC[C@@H](c1ccccc1)n1cc(-c2cc(-c3cnn(C4CC4)c3)c3nc(N)nn3c2)cn1 [II-92]", 8.17),
    ("CC(C)C(c1ccc(C(F)F)nc1)n1cc(-c2cc(-c3ccc(OC(F)F)nc3)n3nc(N)nc3c2)cn1 (racemic) [II-49]", 7.51),
    ("CCC(c1ccc(C(F)(F)F)cc1)n1cc(-c2cc(-c3cnn(CC(F)(F)F)c3)n3nc(N)nc3c2)cn1 (centres unmarked) [II-129]", 7.16),
    ("CCC(c1ccc(C(F)(F)F)nc1)n1cc(-c2cc(-c3ccnc(OC(F)F)c3)c3nc(N)nn3c2)cn1 (racemic) [II-25]", 6.89),
    ("CCC(c1ccc(C(F)(F)F)cc1)n1cc(-c2cc(-c3cnn(C)c3)c3nc(N)nn3c2)cn1 (single isomer, unassigned) [II-100]", 7.24),
    ("CCC(c1ccc(C(F)F)nc1)n1cc(-c2cc(-c3cnn(CC(F)(F)F)c3)c3nc(N)nn3c2)cn1 (racemic) [II-105]", 8.03),
    ("CCC(c1ccc(OC(F)(F)F)nc1)n1cc(-c2cc(-c3cnn(CC(F)(F)F)c3)n3nc(N)nc3c2)cn1 (single isomer, unassigned) [II-115]", 7.17),
    ("CC[C@@H](c1ccccc1)n1cc(-c2cc(-c3cnn(C(C)C(F)(F)F)c3)c3nc(N)nn3c2)cn1 (single isomer, unassigned) [II-95]", 8.25),
]
